system: small intestine; assay: Antiperistaltic effect (carbon suspension, small intestine); type: in vivo, mice; conditions: mouse, in vivo, po
Where Therapeutic index equals or exceeds 40, the correct label is MET; where it does not, the label is NOT MET.

Answered examples (6):
compound="CC(=O)Nc1cnn2cnc3ccccc3c12 [Example 5, 1-Acetaminopyrazolo[1,5-c]quinazoline]" class_name="NOT MET"
compound="Cc1nc2ccccc2c2c([N+](=O)[O-])cnn12 [Example 3]" class_name="NOT MET"
compound="CC(=O)Nc1cnn2c(C)nc3ccccc3c12 [Example 36]" class_name="NOT MET"
compound="CC(=O)Nc1cnn2c1-c1ccccc1N(C(C)=O)C2C (stereo not drawn) [Example 35]" class_name="NOT MET"
compound="CC(=O)Nc1cnn2c1-c1ccccc1NC2(C)C [Example 33]" class_name=MET
compound="CC1(C)Nc2ccccc2-c2c([N+](=O)[O-])cnn21 [Example 9]" class_name="NOT MET"

Lookup: Hello, I need to know if O=[N+]([O-])c1cnn2cnc3ccccc3c12 [Example 1, 1-Nitropyrazolo[1,5-c]quinazoline] has measured Therapeutic index not below 40. Thanks!
Found: MET
